The measurements presented in this section are drawn from patent US8846656B2.

Tested on: CD11b
experimental-protocol: Human whole blood CD11b up-regulation assay
Format: cell-based
recorded-conditions: Homo sapiens, 2 nM human C5a, CD15+ granulocytes, read-out: hCD11b IC50
Procedure: Whole blood was collected in sodium heparin tubes and the assay started within 2 hours of the blood draw. The blood was incubated with compounds in 1% DMSO (dimethyl sulfoxide) at room temperature for 10 minutes with gentle rocking. 2 nM of human C5a was then added for 15 minutes at room temperature with gentle rocking. […] The CD11b median fluorescence intensity of the CD 15+ cell population was evaluated using FACSDiva software (Becton Dickinson).
Overview of recorded IC50 for various molecules
Numbers only; they are read as nM.

The cases that follow already have their IC50 on record.
Cc1ccc(C(C)C)cc1N1CCc2nc(-c3c(C)ccc4[nH]ncc34)nc(N3CCN(CC(N)=O)C[C@H]3C)c2C1 [Example 24-L] ... 391
[2H]C1([2H])c2c(C)cc(-c3cccc4[nH]cc(C)c34)nc2CCN1c1cc(C(C)C)ccc1C [Example 40-S] ... 793

Req: IC50 for CO[C@@H]1CCN(c2nc(-c3c(C)ccc4[nH]nc(C)c34)nc3c2CN(c2cc(Cl)ccc2C)CC3)[C@H](C)C1 [Example 21-AG] ?
Resp: 22

Req: Same lookup for COC1CCN(c2nc(-c3cccc4[nH]cc(C)c34)nc3c2CN(c2cc(C(C)C)ccc2C)CC3)[C@H](C)C1 (stereo in doubt) [Example 17-R] , please.
Resp: 42

Req: Try CO[C@@H]1CN(c2nc(-c3c(C)ccc4[nH]nc(C)c34)nc3c2CN(c2c(Cl)c(C4CC4)nn2C)CC3)[C@H]1C (racemic) [Example 69-I] next.
Resp: 25

Req: Now consider CO[C@@H]1CCN(c2nc(-c3c(C)ccc4[nH]nc(C)c34)nc3c2CN(c2cc(C(C)C)ccc2C)CC3)CC1(C)C [Example 21-AI] .
Resp: 8

Req: Try this molecule too: CO[C@H]1CCN(c2nc(-c3cccc4[nH]cc(C)c34)nc3c2CN(c2cc(C(C)C)ccc2C)CC3)C[C@H]1C (racemic) [Example 17-AQ]
Resp: 277

Req: And for CO[C@@H]1CCN(c2nc(-c3c(C)cccc3C)nc3c2CN(c2cc(C4(C)COC4)ccc2C)CC3)[C@H](C)C1 [Example 21-K] ?
Resp: 11

Req: Quick one: CO[C@H]1CCN(c2nc(-c3c(C)cccc3C)nc3c2CN(c2cc(C(C)C)ccc2C)CC3)CC1(C)C [Example 19-AD]
Resp: 26

----------
Attribute: pIC50
assayed-system: human C5aR (Homo sapiens (Human))
Sequence (P21730 whole entry): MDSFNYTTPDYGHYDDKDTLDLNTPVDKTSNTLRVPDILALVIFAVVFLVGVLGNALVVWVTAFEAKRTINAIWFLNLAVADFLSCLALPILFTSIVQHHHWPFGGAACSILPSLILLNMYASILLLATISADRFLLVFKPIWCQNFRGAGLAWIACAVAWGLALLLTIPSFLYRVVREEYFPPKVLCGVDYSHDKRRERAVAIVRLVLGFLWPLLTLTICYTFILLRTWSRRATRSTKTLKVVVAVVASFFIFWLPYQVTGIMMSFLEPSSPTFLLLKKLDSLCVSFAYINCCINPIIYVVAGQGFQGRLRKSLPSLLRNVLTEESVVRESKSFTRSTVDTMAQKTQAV
experimental-protocol: FLIPR assay: inhibition of C5a-mediated calcium mobilization
recorded-conditions: stable cell line over expressing human C5aR & Gα15, human C5a at EC50 (0.1-0.25 nM)
Scale for pIC50: -log10 of concentration given in mol/L; no unit attached.

Req: pIC50 lookup needed for Cc1ccc(C(F)(F)F)cc1N1CCc2nc(-c3cccc4[nH]cc(C)c34)nc(N3CCN(CC(N)=O)[C@H](C)C3)c2C1 [Example 24-G] , thanks.
Resp: 8.15

Req: Okay, and Cc1ccc(F)cc1N1CCc2nc(-c3cccc4[nH]cc(C)c34)nc(N3CCN(CC(N)=O)[C@H](C)C3)c2C1 [Example 24-E] ?
Resp: 7.12

Req: Again, but for CO[C@@H]1CCN(c2nc(-c3c(C)ccc4[nH]nc(C)c34)nc3c2CN(c2cc(C(F)(F)F)ccc2C)CC3)[C@H](C)C1 [Example 21-AH]
Resp: 9.00

Req: Another compound: Cc1ccc(C(C)C)cc1N1CCc2nc(-c3cccc4[nH]cc(C)c34)nc(N3CCC(O)C(C)(C)C3)c2C1 (stereo not shown) [Example 17-AI]
Resp: 7.72
